For each of the compounds below, state its ALOMY rating.
System: Alopecurus myosuroides (ALOMY)
Assay: Post-emergence herbicidal evaluation, black grass
Format: in vivo
Details: dose 0.03 kg/ha, rated 2 to 4 weeks after treatment
Procedure: [table] […] These acetone solutions are diluted with water and the resulting formulations applied at dosage levels equivalent of about 0.03 to 0.4 kg per hectare of test compound per pot. After spraying the plants are placed on greenhouse benches and are cared for in the usual manner, commensurate with conventional greenhouse practices. From 2 to 4 weeks after treatment, the seedling plants are examined and rated according to the rating system provided above. […]

Note down ALOMY rating recorded for Cc1cc(OCC(F)(F)C(F)(F)F)nc(Oc2cc(C(F)(F)F)nn2C)c1 [Example 7]
2 (2 - Slight effect)

Note down ALOMY rating recorded for Cc1cc(OC/C=C/C(F)(F)F)nc(Oc2cc(C(F)(F)F)nn2C)c1 [Example 1]
6 (6 - Herbicidal effect)

Note down ALOMY rating recorded for COc1cc(OCC(F)(F)C(F)F)nc(Oc2cc(C(F)(F)F)nn2C)c1 [Example 4]
3 (3 - Moderate effect)

Note down ALOMY rating recorded for Cc1cc(OCC=C(Cl)Cl)nc(Oc2cc(C(F)(F)F)nn2C)c1 [Example 12]
8 (8 - Approaching complete kill)

Note down ALOMY rating recorded for Cc1cc(OC=CCC(F)(F)F)nc(Oc2cc(C(F)(F)F)nn2C)c1 [Example 2]
2 (2 - Slight effect)

Note down ALOMY rating recorded for CC(Cl)=CCOc1cc(C)cc(Oc2cc(C(F)(F)F)nn2C)n1 [Example 11]
6 (6 - Herbicidal effect)

Note down ALOMY rating recorded for Cc1cc(OCC(F)(F)C(F)(F)C(F)(F)C(F)F)nc(Oc2cc(C(F)(F)F)nn2C)c1 [Example 8]
2 (2 - Slight effect)

----------
Test system: Oryza sativum (ORYSA)
Test: Pre-emergence herbicidal evaluation, rice
Assay type: in vivo
Details: dose 0.4 kg/ha
readout: ORYSA rating

Note down ORYSA rating recorded for `Cc1cc(OCC(F)(F)C(F)(F)C(F)(F)C(F)F)nc(Oc2cc(C(F)(F)F)nn2C)c1`
1 (1 - Trace effect)

Note down ORYSA rating recorded for `CC(Cl)=CCOc1cc(C)cc(Oc2cc(C(F)(F)F)nn2C)n1`
3 (3 - Moderate effect)

Note down ORYSA rating recorded for `Cc1cc(OCC(F)(F)C(F)F)nc(Oc2cc(C(F)(F)F)nn2C)c1`
2 (2 - Slight effect)

Note down ORYSA rating recorded for `Cc1cc(OC/C=C/C(F)(F)F)nc(Oc2cc(C(F)(F)F)nn2C)c1`
5 (5 - Definite injury)

Note down ORYSA rating recorded for `Cc1cc(OCC(F)(F)C(F)(F)F)nc(Oc2cc(C(F)(F)F)nn2C)c1`
2 (2 - Slight effect)

Note down ORYSA rating recorded for `COc1cc(OCC(F)(F)C(F)F)nc(Oc2cc(C(F)(F)F)nn2C)c1`
3 (3 - Moderate effect)

Note down ORYSA rating recorded for `Cc1cc(OC=CCC(F)(F)F)nc(Oc2cc(C(F)(F)F)nn2C)c1`
3 (3 - Moderate effect)

Note down ORYSA rating recorded for `Cc1cc(OCC=C(Cl)Cl)nc(Oc2cc(C(F)(F)F)nn2C)c1`
3 (3 - Moderate effect)

----------
System: Matricaria inodora (MATIN)
Experiment: Pre-emergence herbicidal evaluation, mayweed
Assay type: in vivo
Settings: dose 0.013 kg/ha
readout: MATIN rating

Note down MATIN rating recorded for `Cc1cc(OCC(F)(F)C(F)(F)F)nc(Oc2cc(C(F)(F)F)nn2C)c1`
0 (0 - No effect)

Note down MATIN rating recorded for `COc1cc(OCC(F)(F)C(F)F)nc(Oc2cc(C(F)(F)F)nn2C)c1`
8 (8 - Approaching complete kill)

Note down MATIN rating recorded for `CC(Cl)=CCOc1cc(C)cc(Oc2cc(C(F)(F)F)nn2C)n1`
9 (9 - Complete kill)

Note down MATIN rating recorded for `Cc1cc(OC/C=C/C(F)(F)F)nc(Oc2cc(C(F)(F)F)nn2C)c1`
8 (8 - Approaching complete kill)

Note down MATIN rating recorded for `Cc1cc(OCC=C(Cl)Cl)nc(Oc2cc(C(F)(F)F)nn2C)c1`
8 (8 - Approaching complete kill)

Note down MATIN rating recorded for `Cc1cc(OC=CCC(F)(F)F)nc(Oc2cc(C(F)(F)F)nn2C)c1`
4 (4 - Injury)

Note down MATIN rating recorded for `Cc1cc(OCC(F)(F)C(F)(F)C(F)(F)C(F)F)nc(Oc2cc(C(F)(F)F)nn2C)c1`
8 (8 - Approaching complete kill)

----------
Test system: Echinochloa grus galli (ECHCG)
Experiment: Pre-emergence herbicidal evaluation, barnyard grass
Format: in vivo
Details: dose 0.4 kg/ha
readout: ECHCG rating

Note down ECHCG rating recorded for `Cc1cc(OCC(F)(F)C(F)(F)C(F)(F)C(F)F)nc(Oc2cc(C(F)(F)F)nn2C)c1`
8 (8 - Approaching complete kill)

Note down ECHCG rating recorded for `Cc1cc(OCC(F)(F)C(F)F)nc(Oc2cc(C(F)(F)F)nn2C)c1`
9 (9 - Complete kill)

Note down ECHCG rating recorded for `Cc1cc(OCC=C(Cl)Cl)nc(Oc2cc(C(F)(F)F)nn2C)c1`
9 (9 - Complete kill)

Note down ECHCG rating recorded for `Cc1cc(OC=CCC(F)(F)F)nc(Oc2cc(C(F)(F)F)nn2C)c1`
9 (9 - Complete kill)

Note down ECHCG rating recorded for `Cc1cc(OC/C=C/C(F)(F)F)nc(Oc2cc(C(F)(F)F)nn2C)c1`
9 (9 - Complete kill)

Note down ECHCG rating recorded for `Cc1cc(OCC(F)(F)C(F)(F)F)nc(Oc2cc(C(F)(F)F)nn2C)c1`
7 (7 - Good herbicidal effect)

Note down ECHCG rating recorded for `COc1cc(OCC(F)(F)C(F)F)nc(Oc2cc(C(F)(F)F)nn2C)c1`
8 (8 - Approaching complete kill)

Note down ECHCG rating recorded for `CC(Cl)=CCOc1cc(C)cc(Oc2cc(C(F)(F)F)nn2C)n1`
9 (9 - Complete kill)

----------
System: Setaria viridis (SETVI)
Test: Post-emergence herbicidal evaluation, green foxtail
Type: in vivo
Settings: dose 0.03 kg/ha, rated 2 to 4 weeks after treatment
For each of the molecules below, state its SETVI rating.

Note down SETVI rating recorded for CC(Cl)=CCOc1cc(C)cc(Oc2cc(C(F)(F)F)nn2C)n1 [Example 11]
5 (5 - Definite injury)

Note down SETVI rating recorded for COc1cc(OCC(F)(F)C(F)F)nc(Oc2cc(C(F)(F)F)nn2C)c1 [Example 4]
6 (6 - Herbicidal effect)

Note down SETVI rating recorded for Cc1cc(OC=CCC(F)(F)F)nc(Oc2cc(C(F)(F)F)nn2C)c1 [Example 2]
4 (4 - Injury)

Note down SETVI rating recorded for Cc1cc(OCC(F)(F)C(F)(F)F)nc(Oc2cc(C(F)(F)F)nn2C)c1 [Example 7]
2 (2 - Slight effect)

Note down SETVI rating recorded for Cc1cc(OCC(F)(F)C(F)(F)C(F)(F)C(F)F)nc(Oc2cc(C(F)(F)F)nn2C)c1 [Example 8]
3 (3 - Moderate effect)

Note down SETVI rating recorded for Cc1cc(OCC=C(Cl)Cl)nc(Oc2cc(C(F)(F)F)nn2C)c1 [Example 12]
9 (9 - Complete kill)

Note down SETVI rating recorded for Cc1cc(OC/C=C/C(F)(F)F)nc(Oc2cc(C(F)(F)F)nn2C)c1 [Example 1]
5 (5 - Definite injury)

----------
System: Echinochloa grus galli (ECHCG)
Test: Post-emergence herbicidal evaluation, barnyard grass
Assay type: in vivo
Details: dose 0.4 kg/ha, rated 2 to 4 weeks after treatment
readout: ECHCG rating

Note down ECHCG rating recorded for `Cc1cc(OCC(F)(F)C(F)(F)F)nc(Oc2cc(C(F)(F)F)nn2C)c1`
7 (7 - Good herbicidal effect)

Note down ECHCG rating recorded for `Cc1cc(OCC(F)(F)C(F)(F)C(F)(F)C(F)F)nc(Oc2cc(C(F)(F)F)nn2C)c1`
8 (8 - Approaching complete kill)

Note down ECHCG rating recorded for `CC(Cl)=CCOc1cc(C)cc(Oc2cc(C(F)(F)F)nn2C)n1`
8 (8 - Approaching complete kill)

Note down ECHCG rating recorded for `COc1cc(OCC(F)(F)C(F)F)nc(Oc2cc(C(F)(F)F)nn2C)c1`
9 (9 - Complete kill)

Note down ECHCG rating recorded for `Cc1cc(OC=CCC(F)(F)F)nc(Oc2cc(C(F)(F)F)nn2C)c1`
7 (7 - Good herbicidal effect)

Note down ECHCG rating recorded for `Cc1cc(OC/C=C/C(F)(F)F)nc(Oc2cc(C(F)(F)F)nn2C)c1`
8 (8 - Approaching complete kill)

Note down ECHCG rating recorded for `Cc1cc(OCC=C(Cl)Cl)nc(Oc2cc(C(F)(F)F)nn2C)c1`
9 (9 - Complete kill)

----------
Tested on: Zea mays (ZEAMX)
Assay: Pre-emergence herbicidal evaluation, maize
Assay type: in vivo
Details: dose 0.4 kg/ha
readout: ZEAMX rating

Note down ZEAMX rating recorded for CC(Cl)=CCOc1cc(C)cc(Oc2cc(C(F)(F)F)nn2C)n1 [Example 11]
5 (5 - Definite injury)

Note down ZEAMX rating recorded for Cc1cc(OCC(F)(F)C(F)(F)F)nc(Oc2cc(C(F)(F)F)nn2C)c1 [Example 7]
2 (2 - Slight effect)

Note down ZEAMX rating recorded for Cc1cc(OCC(F)(F)C(F)F)nc(Oc2cc(C(F)(F)F)nn2C)c1 [Example 6]
5 (5 - Definite injury)

Note down ZEAMX rating recorded for COc1cc(OCC(F)(F)C(F)F)nc(Oc2cc(C(F)(F)F)nn2C)c1 [Example 4]
5 (5 - Definite injury)

Note down ZEAMX rating recorded for Cc1cc(OCC(F)(F)C(F)(F)C(F)(F)C(F)F)nc(Oc2cc(C(F)(F)F)nn2C)c1 [Example 8]
2 (2 - Slight effect)

Note down ZEAMX rating recorded for Cc1cc(OC/C=C/C(F)(F)F)nc(Oc2cc(C(F)(F)F)nn2C)c1 [Example 1]
5 (5 - Definite injury)

Note down ZEAMX rating recorded for Cc1cc(OCC=C(Cl)Cl)nc(Oc2cc(C(F)(F)F)nn2C)c1 [Example 12]
5 (5 - Definite injury)

Note down ZEAMX rating recorded for Cc1cc(OC=CCC(F)(F)F)nc(Oc2cc(C(F)(F)F)nn2C)c1 [Example 2]
4 (4 - Injury)
